- test system: recombinant JAK3 (amino acids 781-1124) (Homo sapiens (Human), UniProt P52333)
- Sequence (P52333 781-1124): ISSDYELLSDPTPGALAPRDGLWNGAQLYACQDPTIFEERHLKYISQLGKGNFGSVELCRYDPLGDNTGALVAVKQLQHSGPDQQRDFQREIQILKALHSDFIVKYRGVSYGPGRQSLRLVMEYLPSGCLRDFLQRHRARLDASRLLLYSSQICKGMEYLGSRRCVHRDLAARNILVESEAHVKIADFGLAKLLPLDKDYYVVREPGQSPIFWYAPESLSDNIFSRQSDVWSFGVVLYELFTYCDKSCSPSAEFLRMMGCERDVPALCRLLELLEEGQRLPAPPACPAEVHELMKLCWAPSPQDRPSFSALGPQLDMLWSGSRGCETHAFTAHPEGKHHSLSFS
- assay procedure: Enzyme inhibition studies, JAK3 (5 mM ATP, Caliper)
experimental endpoint: IC50

## Task # query: IC50 of entry C[C@H](C(=O)Nc1cccc2c(-c3nc(Nc4cccc(S(C)(=O)=O)c4F)ncc3F)c[nH]c12)N1C[C@H](C)N[C@@H](C)C1
## Result > 30 µM

## Task For the molecule shown here, CC[C@H](C(=O)Nc1cccc2c(-c3nc(Nc4cccc(S(C)(=O)=O)c4F)ncc3C)c[nH]c12)N1C[C@@H](C)N[C@H](C)C1 , give the reported IC50.
## Result > 30 µM

## Task Look at this molecule and give its reported IC50. COC[C@@H](C(=O)Nc1cccc2c(-c3nc(Nc4cccc(S(C)(=O)=O)c4F)ncc3C)c[nH]c12)N1C[C@@H](C)N[C@H](C)C1
## Result > 30 µM

New cases:
## Task Data request, read-out IC50, for CC[C@H](C(=O)Nc1cccc2c(-c3nc(Nc4cccc(S(C)(=O)=O)c4F)ncc3C)c[nH]c12)N1CCN(C)CC1
## Result > 30 µM

## Task Find the recorded IC50 belonging to COC[C@H](C(=O)Nc1cccc2c(-c3nc(Nc4cccc(S(C)(=O)=O)c4F)ncc3C)c[nH]c12)N1CCN(C)C[C@H]1C and report it.
## Result > 30 µM

## Task Any idea what IC50 was measured for CC[C@H](C(=O)Nc1cccc2c(-c3nc(Nc4cccc(S(C)(=O)=O)c4F)ncc3F)c[nH]c12)N1CCN(C)CC1 ?
## Result > 30 µM

## Task Record request: IC50 value, item CCOC[C@H](C(=O)Nc1cccc2c(-c3nc(Nc4cccc(S(C)(=O)=O)c4F)ncc3C)c[nH]c12)N1CCN(C)CC1
## Result > 30 µM

## Task Need IC50 of Cc1cnc(Nc2cccc(S(C)(=O)=O)c2F)nc1-c1c[nH]c2c(NC(=O)[C@@H](C)N3CCN(C)CC3)cccc12 , thanks.
## Result > 30 µM

## Task Please look up its IC50: C[C@H](C(=O)Nc1cccc2c(-c3nc(Nc4cccc(S(C)(=O)=O)c4F)ncc3Cl)c[nH]c12)N1CCN(C)CC1
## Result > 30 µM

## Task // lookup IC50 for C[C@H](C(=O)Nc1cccc2c(-c3nc(Nc4cccc(S(C)(=O)=O)c4F)ncc3F)c[nH]c12)N1C[C@H](C)N(C)[C@@H](C)C1
## Result > 30 µM

## Task Can you look up the measured IC50 of Cc1cnc(Nc2cccc(S(C)(=O)=O)c2F)nc1-c1c[nH]c2c(NC(=O)[C@H](COCc3ccccc3)N3CCN(C)CC3)cccc12 for me?
## Result > 30 µM

## Task Could you share which IC50 value was measured for Cc1cnc(Nc2cccc(S(=O)(=O)C3CC3)c2F)nc1-c1c[nH]c2c(NC(=O)[C@@H](C)N3CCN(C)CC3)cccc12 ?
## Result > 30 µM

## Task What value of measured IC50 is listed for COC[C@@H](C(=O)Nc1cccc2c(-c3nc(Nc4cccc(S(C)(=O)=O)c4F)ncc3C)c[nH]c12)N1CCN(C)C[C@H]1C ?
## Result > 30 µM

## Task I would be grateful if you could share the reported IC50 for COC[C@H](C(=O)Nc1cccc2c(-c3nc(Nc4cccc(S(C)(=O)=O)c4F)ncc3F)c[nH]c12)N1CCCN(C)CC1 .
## Result > 30 µM

## Task Which IC50 value is on record for CC[C@@H](C(=O)Nc1cccc2c(-c3nc(Nc4cccc(S(C)(=O)=O)c4F)ncc3F)c[nH]c12)N1CCN(C)CC1 ?
## Result > 30 µM

## Task Look up IC50 for this molecule: COC[C@H](C(=O)Nc1cccc2c(-c3nc(Nc4cccc(S(C)(=O)=O)c4F)ncc3F)c[nH]c12)N1CCN(C)CC1
## Result > 30 µM

## Task I am curious: what IC50 value has been reported for CC[C@@H](C(=O)Nc1cccc2c(-c3nc(Nc4cccc(S(C)(=O)=O)c4F)ncc3F)c[nH]c12)N1C[C@H](C)N(C)[C@@H](C)C1 ?
## Result > 30 µM

## Task Query: IC50; subject: CC[C@@H](C(=O)Nc1cccc2c(-c3nc(Nc4cccc(S(C)(=O)=O)c4F)ncc3C)c[nH]c12)N1CCN(C)CC1C (stereo in doubt) [Example 50]
## Result > 30 µM

## Task Param item = C[C@H]1CN([C@@H](C)C(=O)Nc2cccc3c(-c4nc(Nc5cccc(S(C)(=O)=O)c5F)ncc4F)c[nH]c23)C[C@H](C)N1 ; retrieve measured IC50.
## Result > 30 µM
